# Tested on: HIV-1IIIB
# Protocol: Syncytia inhibition assay (HIV-1IIIB infected C8166 cells)
# Format: cell-based
# Test settings: CC50 in C8166 cells / EC50 syncytia inhibition
Label yes when TI (in vitro therapeutic index, CC50 value/EC50 value) >= 20; otherwise no.

Would you please look over these solved cases?
>>> label_value("O=C1C2C(c3cccc4c3OCO4)=NN(c3ccc(F)cc3)C2C(=O)N1CCc1ccc(F)cc1 (centres unmarked) [12b]")
"yes"
>>> label_value("O=C1C2C(c3cccc(Cl)c3O)=NN(c3ccc(F)cc3)C2C(=O)N1CCc1ccc(F)cc1 (centres unmarked) [9d]")
"no"
>>> label_value("COc1ccc(C2=NN(c3ccc(F)cc3)C3C(=O)N(CCc4ccc(F)cc4)C(=O)C23)c(O)c1 (centres unmarked) [10a]")
"no"
>>> label_value("O=C1C2C(c3ccccc3O)=NN(c3ccc(F)cc3)C2C(=O)N1CCc1ccc(F)cc1 (centres unmarked) [compound 8]")
"yes"
>>> label_value("Cc1cccc(C2=NN(c3ccc(F)cc3)C3C(=O)N(CCc4ccc(F)cc4)C(=O)C23)c1O (centres unmarked) [9f]")
"yes"

Is reported TI (in vitro therapeutic index, CC50 value/EC50 value) greater than or equal to 20 here: COc1cccc(C2=NN(c3ccc(Cl)cc3)C3C(=O)N(CCc4ccc(F)cc4)C(=O)C23)c1O (centres unmarked) [15c] no
